- test_name: Permeability from apical to basolateral side of human Caco-2 cells at 5 uM
- Format: ADME, cell-based
- condition_info: read-out: permeability
// values below are reported Papp A→B at 5 µM
property_name: Papp A→B at 5 µM (×10⁻⁶ cm/s)

compound="Cc1nc2cc(F)ccc2n1C1C[C@H]2CC[C@@H](C1)N2CC[C@H](NC(=O)C1CCS(=O)(=O)CC1)c1cccc(F)c1 (stereo partly specified)" bound_sign== observed=3
compound="Cc1nc2ccc(F)cc2n1C1C[C@H]2CC[C@@H](C1)N2CC[C@H](NC(=O)C1CCS(=O)(=O)CC1)c1cccc(F)c1 (stereo partly specified)" bound_sign== observed=5
compound="Cc1nc2ccccc2n1C1C[C@H]2CC[C@@H](C1)N2CC[C@H](NC(=O)C1CCS(=O)(=O)CC1)c1cccc(F)c1 (stereo partly specified)" bound_sign=< observed=1
compound="Cc1nc2ccccc2n1C1C[C@H]2CC[C@@H](C1)N2CC[C@H](NC(=O)[C@H]1CC[S@@+]([O-])CC1)c1cccc(F)c1 (stereo partly specified)" bound_sign== observed=2
compound="Cc1nc2ccncc2n1C1C[C@H]2CC[C@@H](C1)N2CCC(NC(=O)C1CC[S+]([O-])CC1)c1cccc(F)c1 (stereo partly specified)" bound_sign== observed=2
compound="Cc1nc2ccc(F)cc2n1C1C[C@H]2CC[C@@H](C1)N2CCC(NC(=O)C1CC[S+]([O-])CC1)c1cccc(F)c1 (stereo partly specified)" bound_sign== observed=2

---

- test_name: Half life in rat at 1 mg/kg, iv and 2 mg/kg, po
- Format: ADME, organism-based
- condition_info: in vivo
property_name: half-life (h)

compound="Cc1nc2ccccc2n1C1C[C@H]2CC[C@@H](C1)N2CC[C@H](NC(=O)C1CC[S+]([O-])CC1)c1cccc(F)c1 (stereo partly specified)" observed=2.6

---

Some compounds, each annotated with its measured log10 IC50.
- test_name: Inhibition of HIV1 gp160 by cell-cell fusion inhibition assay
- Set-up: species or system Human immunodeficiency virus 1
property_name: log10 IC50 (log10 of the value in nM)

compound="Cc1nc2ccc(F)cc2n1C1C[C@H]2CC[C@@H](C1)N2CCC(NC(=O)C1CC[S+]([O-])CC1)c1cccc(F)c1 (some centres not stated)" observed=-2.00
compound="Cc1nc2cc(F)ccc2n1C1C[C@H]2CC[C@@H](C1)N2CC[C@H](NC(=O)C1CCS(=O)(=O)CC1)c1cccc(F)c1 (some centres not stated)" observed=-1.52
compound="Cc1nc2ccccc2n1C1C[C@H]2CC[C@@H](C1)N2CC[C@H](NC(=O)c1ccc([S+](C)[O-])cc1)c1cccc(F)c1 (some centres not stated)" observed=1.60
compound="Cc1nc2cc(F)ccc2n1C1C[C@H]2CC[C@@H](C1)N2CC[C@H](NC(=O)c1ccc[n+]([O-])c1)c1cccc(F)c1 (some centres not stated)" observed=0.00
compound="CCc1nc2ccccc2n1C1C[C@H]2CC[C@@H](C1)N2CCC(NC(=O)C1CC[S+]([O-])CC1)c1cccc(F)c1 (some centres not stated)" observed=-1.30

---

- test_name: Membrane permeability across dog RRCK at 2 uM
- Assay type: ADME, cell-based, Canis lupus familiaris, MDCKII-LE
- condition_info: MDCK, read-out: permeability
property_name: Papp at 2 µM (×10⁻⁶ cm/s)

molecule="CCc1nc2ccccc2n1C1C[C@H]2CC[C@@H](C1)N2CC[C@H](NC(=O)C1CCS(=O)(=O)CC1)c1cccc(F)c1 (stereo partly specified)" observed=3
molecule="Cc1nc2ccccc2n1C1C[C@H]2CC[C@@H](C1)N2CC[C@H](NC(=O)[C@H]1CC[S@@+]([O-])CC1)c1cccc(F)c1 (stereo partly specified)" observed=1
molecule="Cc1nc2ccncc2n1C1C[C@H]2CC[C@@H](C1)N2CC[C@H](NC(=O)C1CCS(=O)(=O)CC1)c1cccc(F)c1 (stereo partly specified)" observed=1
molecule="Cc1nc2cc(F)ccc2n1C1C[C@H]2CC[C@@H](C1)N2CC[C@H](NC(=O)C1CCS(=O)(=O)CC1)c1cccc(F)c1 (stereo partly specified)" observed=2
molecule="Cc1nc2cc(F)ccc2n1C1C[C@H]2CC[C@@H](C1)N2CCC(NC(=O)C1CC[S+]([O-])CC1)c1cccc(F)c1 (stereo partly specified)" observed=2
molecule="CCc1nc2ccccc2n1C1C[C@H]2CC[C@@H](C1)N2CCC(NC(=O)C1CC[S+]([O-])CC1)c1cccc(F)c1 (stereo partly specified)" observed=2
molecule="Cc1nc2ccccc2n1C1C[C@H]2CC[C@@H](C1)N2CC[C@H](NC(=O)C1CCSCC1)c1cccc(F)c1 (stereo partly specified)" observed=29
molecule="Cc1nc2ccccc2n1C1C[C@H]2CC[C@@H](C1)N2CC[C@H](NC(=O)C1CCS(=O)(=O)CC1)c1cccc(F)c1 (stereo partly specified)" observed=4
molecule="Cc1nc2ccc(F)cc2n1C1C[C@H]2CC[C@@H](C1)N2CC[C@H](NC(=O)C1CCS(=O)(=O)CC1)c1cccc(F)c1 (stereo partly specified)" observed=2
molecule="Cc1nc2ccccc2n1C1C[C@H]2CC[C@@H](C1)N2CC[C@H](NC(=O)C1CC[S+]([O-])CC1)c1cccc(F)c1 (stereo partly specified)" observed=0.8
molecule="Cc1nc2ccccc2n1C1C[C@H]2CC[C@@H](C1)N2CC[C@H](NC(=O)[C@H]1CC[S@+]([O-])CC1)c1cccc(F)c1 (stereo partly specified)" observed=1
